Test system: HCT-116 colon
assayProtocol: NCI tumour cell line growth inhibition, 48 h
reportedMetric: TGI (µM)
Give the number; µM is assumed, so skip it.

The cases that follow already have their TGI on record.
• NCCCNc1nc2ccccc2c2c(=O)c3cc(F)cc(F)c3sc12 = 3.28
• CCN(CC)CC(C)(C)C(=O)/C=C/c1cccc(/C=C/C(=O)C(C)(C)CN(CC)CC)c1 = 1.24
• COC(=O)C(Cc1nc2ccccc2[nH]c1=O)/C(=N\NC(C)(C)C)C(=O)Nc1c(C)cc(Br)cc1C (centres undefined) = 37
• COc1cc(/C=C2\C[C@H]3[C@@H]4CC=C5C[C@@H](O)CC[C@]5(C)[C@H]4CC[C@]3(C)[C@H]2O)ccc1OCCN1CCCC1 = 24.8
• CC1=NN(c2nc(N)nc(CBr)n2)C(C)(C)C1 = 17.4

-- ask I have this compound here, CCN(CC)CCC(=O)c1ccc(Sc2ccc(F)cc2)cc1 , and I need its recorded TGI.
-- reply 33.6

-- ask I have this compound here, COC1=CC(c2ccc[nH]2)=N/C1=C\c1[nH]c(C)c(CC(=O)OCc2ccccc2)c1CCC(=O)OCc1ccccc1 , and I need its recorded TGI.
-- reply 1.04

-- ask I have this compound here, CCOP(=O)(C=C=C1CCC2[C@@H]3CCc4cc(OC)ccc4C3CC[C@]12C)OCC (some centres undefined) , and I need its recorded TGI.
-- reply 19.2

-- ask I have this compound here, CCOC(=O)[C@@H](C)C[C@H](Cc1ccccc1)NC(=O)c1nc([C@@H](C[C@H](C(C)C)N(C)C(=O)[C@@H](NC(=O)[C@H]2CCCCN2C)C(C)C)OC(C)=O)sc1CCOCc1ccccc1 , and I need its recorded TGI.
-- reply 1.23

---

Quick list: TGI per entry.
Tested on: MDA-N
assayProtocol: NCI tumour cell line growth inhibition, 48 h
Give the number; µM is assumed, so skip it.

• COc1cc2nc(Nc3cccc(Br)c3)nc(Nc3cccc(Br)c3)c2cc1OC = 32.8

-- ask I have this molecule here, CC12OOC(c3ccccc31)c1c2ccc2ccccc12 (stereo unspecified) , and I need its recorded TGI.
-- reply 19.5

-- ask I have this molecule here, CC(=O)OCC(C)C1=C(OC(C)=O)C(=O)C2(C)C/C=C(/C)CC/C=C(\C)CCC(OC(C)=O)C(C)CCC12 (stereo unspecified) , and I need its recorded TGI.
-- reply 33.5

-- ask I have this molecule here, c1ccc2c(CN3CCN(Cc4c[nH]c5ccccc45)CC3)c[nH]c2c1 , and I need its recorded TGI.
-- reply 29.1

---

Quick list: TGI per entry.
Tested on: NCI-H23 lung
assayProtocol: NCI tumour cell line growth inhibition, 48 h

The cases that follow already have their TGI on record.
* NS(=O)(=O)OCC1OC(n2cnc3cncnc32)C(O)C1O (configuration not stated) | 0.0525 µM
* C=CC(=O)NCCSCCCOC1(C(=O)O)CC(O)C(NC(C)=O)C(C(O)C(O)CO)O1 (configuration not stated) | > 100 µM
* Nc1ccccc1NC(=O)c1ccc(CNc2nccc(-c3cccnc3)n2)cc1 | > 68.1 µM
* O=C(Cn1cc(-c2ccccc2)nn1)NC1CCCCC1 | > 100 µM
* OC(c1cc(-c2cccc(Cl)c2)nc2ccccc12)C1CCCCN1 (configuration not stated) | 4.2 µM
* CC(C)(C)OC(=O)N[C@H]1CC(O)c2ccccc2N(CC(=O)O)C1=O (some centres not stated) | > 100 µM

-- ask I have this compound here, CCN(CC)CCNc1ccc(C)c2sc3cc(Cl)ccc3c(=O)c12 , and I need its recorded TGI.
-- reply 3.47 µM

-- ask I have this compound here, CC1=NN(c2nc(N)nc(CBr)n2)C(C)(C)C1 , and I need its recorded TGI.
-- reply 29.9 µM

-- ask I have this compound here, CCCC(=O)NC(Nc1cc(C)ccn1)(C(=O)OCC)C(F)(F)F (configuration not stated) , and I need its recorded TGI.
-- reply > 100 µM

-- ask I have this compound here, O=C(O)CSCc1cc2c(O)c(c1)Cc1cc(CSCC(=O)O)cc(c1O)Cc1cc(CSCC(=O)O)cc(c1O)Cc1cc(CSCC(=O)O)cc(c1O)C2 , and I need its recorded TGI.
-- reply > 100 µM

-- ask I have this compound here, CCCCCC1CC=CC(=O)O1 (configuration not stated) , and I need its recorded TGI.
-- reply 43 µM

-- ask I have this compound here, COc1cc(=O)c2c(O)c3c(O)oc(C)cc3c(OC)c2c1 , and I need its recorded TGI.
-- reply 69.8 µM

-- ask I have this compound here, FC(F)(F)c1ccc(Cc2nc3cc4ccccc4cc3[nH]2)cc1 , and I need its recorded TGI.
-- reply > 100 µM

-- ask I have this compound here, Cn1cc(C2=C(c3ccccc3[N+](=O)[O-])C(=O)NC2=O)c2ccccc21 , and I need its recorded TGI.
-- reply > 25 µM

-- ask I have this compound here, Oc1ccc([Te]CCNCC[Te]c2ccc(O)cc2)cc1 , and I need its recorded TGI.
-- reply 23.2 µM

-- ask I have this compound here, O=C1C(C(O)(C(F)(F)Cl)C(F)(F)Cl)CCCC1C(O)(C(F)(F)Cl)C(F)(F)Cl (configuration not stated) , and I need its recorded TGI.
-- reply > 10 µM

-- ask I have this compound here, COc1cc2nccc(Oc3ccc(NC(=O)NC4CC4)c(Cl)c3)c2cc1C(N)=O , and I need its recorded TGI.
-- reply > 74.6 µM
